# Test system: Mycobacterium tuberculosis (Mtb) H37Rv ATCC 27294
# MEASUREMENT_PROTOCOL: microbe, parasite or virus in culture
# Assay type: cell-based
# RUN_CONDITIONS: Mycobacterium tuberculosis; read-out: MIC, Mtb H37Rv
PROPERTY_MEASURED: MIC
Value and unit, in that order.

What the record says about CC[C@@H](CO)NCCN[C@@H](CC)CO : MIC is 2 µM

# MIC of CC1COc2c(N3CCN(C)CC3)c(F)cc3c(=O)c(C(=O)O)cn1c23 (stereo not shown) [Ofloxacin, reference compound] = 1 µM

// recorded MIC for NNC(=O)c1ccncc1 : 0.06 µM

Measured MIC of COc1nc2ccc(Br)cc2cc1[C@@H](c1ccccc1)[C@@](O)(CCN(C)C)c1cccc2ccccc12 : 0.6 µM

Recorded MIC (compound COc1ncnc(Cn2cc(C(=O)NCCO)c3ncc(C)cc32)c1C ): 1.56 µM

The compound listed as COc1c(N2C[C@@H]3CCCN[C@@H]3C2)c(F)cc2c(=O)c(C(=O)O)cn(C3CC3)c12 [Moxifloxacin, reference compound] shows MIC equal to 0.125 µM

// sample COc1ncnc(Cn2cc(C(=O)NCCF)c3ncc(C)cc32)c1C , its MIC was 0.39 µM
